- target: adenosine A2A (hADORA2A) receptor (Homo sapiens)
- Sequence (P29274 whole entry): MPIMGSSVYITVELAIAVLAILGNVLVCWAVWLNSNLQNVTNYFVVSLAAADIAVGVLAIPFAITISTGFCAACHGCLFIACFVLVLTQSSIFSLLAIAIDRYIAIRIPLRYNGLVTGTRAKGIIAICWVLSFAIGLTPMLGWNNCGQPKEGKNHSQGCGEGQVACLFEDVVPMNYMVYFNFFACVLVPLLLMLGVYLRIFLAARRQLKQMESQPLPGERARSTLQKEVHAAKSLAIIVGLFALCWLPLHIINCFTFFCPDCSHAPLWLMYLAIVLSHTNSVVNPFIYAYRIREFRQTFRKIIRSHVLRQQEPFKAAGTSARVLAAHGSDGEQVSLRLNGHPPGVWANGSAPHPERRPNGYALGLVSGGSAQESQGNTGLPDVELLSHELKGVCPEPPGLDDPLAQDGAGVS
- protocol-details: cAMP ELISA in NECA/ADA-stimulated hADORA2A-HEK293 cells

- compound: "Nc1ncnc2[nH]c(/C=C/c3ccccc3)nc12 [II-1-1, (E) -8-styryl-9H-purine-6-amine]"
  IC50: "> 421 µM"
